B1: Hairpin Ribozyme (parent)
chain: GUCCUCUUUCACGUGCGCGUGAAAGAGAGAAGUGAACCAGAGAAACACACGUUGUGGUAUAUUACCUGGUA

- Variants of: B1
- Procedure Text: self-cleavage, relative activity (ratio to wild type); higher = more cleavage; co-transcriptional
Quantity Name: self-cleavage
Could you respond with only the numeric value?

query: Quick one: self-cleavage for A44U U53A ?
result: 0.079

query: Quick one: self-cleavage for G25C A61C ?
result: 0.0596

query: Quick one: self-cleavage for A41G G56U ?
result: 0.195

query: Quick one: self-cleavage for A36U U53A ?
result: 0.464

query: Quick one: self-cleavage for G27C C50U ?
result: 0.0886

query: Quick one: self-cleavage for U7C U8A ?
result: 0.615

query: Quick one: self-cleavage for A45G C65U ?
result: 0.146

query: Quick one: self-cleavage for A61G A71C ?
result: 0.308

query: Quick one: self-cleavage for U53C A59U ?
result: 0.166

query: Quick one: self-cleavage for U8A U20C ?
result: 0.928

query: Quick one: self-cleavage for G17A G69C ?
result: 0.249

query: Quick one: self-cleavage for G56U U62G ?
result: 0.104

query: Quick one: self-cleavage for C48G G51U ?
result: 0.17

query: Quick one: self-cleavage for C6U C66A ?
result: 0.11

query: Quick one: self-cleavage for G15A A24U ?
result: 0.688

query: Quick one: self-cleavage for C6A C66U ?
result: 0.247

query: Quick one: self-cleavage for G17U U58C ?
result: 1.13

query: Quick one: self-cleavage for G54U U55C ?
result: 0.18

query: Quick one: self-cleavage for G27U U55A ?
result: 0.152

query: Quick one: self-cleavage for A36U A49C ?
result: 0.214

query: Quick one: self-cleavage for A39U U53A ?
result: 0.233

query: Quick one: self-cleavage for A26C C46U ?
result: 0.172

query: Quick one: self-cleavage for U9A U20A ?
result: 0.605

query: Quick one: self-cleavage for C6A U63C ?
result: 0.191

query: Quick one: self-cleavage for A44G A61G ?
result: 0.152

query: Quick one: self-cleavage for G13A A30C ?
result: 0.0871

query: Quick one: self-cleavage for G25A A61U ?
result: 0.0154

query: Quick one: self-cleavage for "G51U" ?
result: 1.03

query: Quick one: self-cleavage for G17U A45U ?
result: 0.176

query: Quick one: self-cleavage for U5C U8C ?
result: 0.313

query: Quick one: self-cleavage for C3U A41G ?
result: 0.643

query: Quick one: self-cleavage for A24G A44G ?
result: 0.152

query: Quick one: self-cleavage for G21A G32C ?
result: 0.146

query: Quick one: self-cleavage for A24G G27A ?
result: 0.401

query: Quick one: self-cleavage for A43U A59G ?
result: 0.166

query: Quick one: self-cleavage for U8A G13U ?
result: 0.551

query: Quick one: self-cleavage for G19U G34C ?
result: 1.36

query: Quick one: self-cleavage for G40U C50A ?
result: 0.0746

query: Quick one: self-cleavage for U5A U14A ?
result: 0.164

query: Quick one: self-cleavage for G15U A47C ?
result: 0.324

query: Quick one: self-cleavage for G15A G29U ?
result: 0.0945

query: Quick one: self-cleavage for U8G C18A ?
result: 0.72

query: Quick one: self-cleavage for U9A A39C ?
result: 0.423

query: Quick one: self-cleavage for G27C A71U ?
result: 0.178

query: Quick one: self-cleavage for A24G G40U ?
result: 0.147

query: Quick one: self-cleavage for A24U U67C ?
result: 0.207

query: Quick one: self-cleavage for G15U A39C ?
result: 0.7

query: Quick one: self-cleavage for A28G U67G ?
result: 0.294

query: Quick one: self-cleavage for A24U A45G ?
result: 0.241

query: Quick one: self-cleavage for A36U A45U ?
result: 0.057

query: Quick one: self-cleavage for A47U U53C ?
result: 0.0703

query: Quick one: self-cleavage for U5C A26C ?
result: 0.497

query: Quick one: self-cleavage for G1A U8G ?
result: 0.158

query: Quick one: self-cleavage for G34A G57C ?
result: 0.247

query: Quick one: self-cleavage for G25C C65U ?
result: 0.324

query: Quick one: self-cleavage for A35G U55A ?
result: 0.292

query: Quick one: self-cleavage for A24C A59U ?
result: 0.204

query: Quick one: self-cleavage for U58G U63A ?
result: 0.149

query: Quick one: self-cleavage for C6A G15U ?
result: 0.582

query: Quick one: self-cleavage for A28C G34A ?
result: 0.753

query: Quick one: self-cleavage for A28U A49G ?
result: 0.365

query: Quick one: self-cleavage for C48G C65A ?
result: 0.22

query: Quick one: self-cleavage for U20C C46A ?
result: 0.237

query: Quick one: self-cleavage for U63A G68A ?
result: 0.276

query: Quick one: self-cleavage for A11G C12G ?
result: 0.788

query: Quick one: self-cleavage for A24C C37U ?
result: 0.455

query: Quick one: self-cleavage for A23U G56U ?
result: 0.184

query: Quick one: self-cleavage for G17A A24G ?
result: 0.824

query: Quick one: self-cleavage for C12A G54A ?
result: 0.485

query: Quick one: self-cleavage for G29U G51U ?
result: 0.121

query: Quick one: self-cleavage for G19A A26C ?
result: 0.541

query: Quick one: self-cleavage for U9G G27A ?
result: 0.332

query: Quick one: self-cleavage for U20G G25U ?
result: 0.64

query: Quick one: self-cleavage for C48G G57A ?
result: 0.151

query: Quick one: self-cleavage for A28C C37G ?
result: 0.199

query: Quick one: self-cleavage for G42A U60G ?
result: 0.157

query: Quick one: self-cleavage for G13U C65A ?
result: 0.845

query: Quick one: self-cleavage for A36U G51A ?
result: 0.508

query: Quick one: self-cleavage for U5A A24U ?
result: 0.273

query: Quick one: self-cleavage for G32A C46A ?
result: 0.145

query: Quick one: self-cleavage for A41C C48G ?
result: 0.199

query: Quick one: self-cleavage for A47U C66G ?
result: 0.116

query: Quick one: self-cleavage for U8G A26U ?
result: 0.281

query: Quick one: self-cleavage for U9C G56U ?
result: 0.0494

query: Quick one: self-cleavage for A26G C66U ?
result: 0.429

query: Quick one: self-cleavage for G1A U70C ?
result: 0.154

query: Quick one: self-cleavage for G34U U55A ?
result: 1.48

query: Quick one: self-cleavage for U7A U60G ?
result: 0.496

query: Quick one: self-cleavage for A35G U70C ?
result: 0.796

query: Quick one: self-cleavage for A28U A43C ?
result: 0.133

query: Quick one: self-cleavage for G19A A43U ?
result: 0.102
